# System: OVCAR-4 ovarian
# RUN_DESCRIPTION: NCI-60 one-dose screen, 48 h (100 = growth as untreated, 0 = no growth, -100 = all killed)
# ASSAY_SETUP: 10 µM unless noted
About 83,000 compounds went through this panel and 20% of them were active in at least one assay; those are over-represented in the sample as a whole.
PARAMETER: growth (%)
Give bare numbers, in %.

Example cases with answers are listed next.
{"columns": ["COMPOUND", "UNIT_ANNOTATION", "growth"],
 "data": [
  ["CC[C@@H](C)OC(=O)c1nn(C(C)=O)c2ccccc12", "%", 103],
  ["O=S(=O)(Nc1ccc(Cl)cc1Cl)c1ccc(-c2cnc(C3CC3)o2)cc1", "%", 52.6],
  ["CC(=O)O[C@H]1CC[C@]2(C)[C@H]3CC[C@@H]4[C@H]5[C@H](C(C)C)CC[C@]5(C(=O)OCC(CO)(CO)N=C(N)N)CC[C@@]4(C)[C@]3(C)CC[C@H]2C1(C)C", "%", 87.9]
]}

// for each compound below, give its growth
1. CCOC(=O)C12CCCC1=CC(=O)CC2 (stereo not given)
2. COc1ccc(/C=C2\N=C3SC=C(N)N3C2=O)cc1

[112, 21.5]

====

# System: SW-620 colon
# RUN_DESCRIPTION: NCI-60 one-dose screen, 48 h
# ASSAY_SETUP: 10 µM unless noted
The panel holds about 83,000 compounds, 20% with a hit somewhere; the sample as a whole holds those more often. Calls of active or inactive are those of the source. How the source made its calls: active means growth percent below 10; inactive means the rest.
Use one of these outcomes when replying: 1 (active), 0 (inactive)

Assay result, entry C/C(Cc1ccc(Cl)cc1)=C(\c1ccc(OCCN2CCCCCC2)cc1)c1ccc(OC(=O)C2CCCCC2)cc1 — outcome?
0

Assay result, entry O=[N+]([O-])c1cccc(-c2nc3sccn3c2-c2ccnc(NCCCNS(=O)(=O)c3ccc(Br)cc3)n2)c1 — outcome?
0

Assay result, entry O=C(Nc1ccc(Nc2cc(Nc3ccccc3)ncn2)cc1)Nc1cc(C(F)(F)F)ccc1F — outcome?
0

Assay result, entry O=C(Nc1ccc(CN2CCOCC2)cc1)c1[nH]ncc1Nc1ncnc2sccc12 — outcome?
1

Assay result, entry O=C1Nc2ccc(Br)cc2C12CC(c1ccccc1)=NN2 (stereo not given) — outcome?
0

Assay result, entry CCOC(=O)c1cnc2cc(Cl)c(F)cc2c1Nc1cccc(NS(C)(=O)=O)c1 — outcome?
0

Assay result, entry COC(/C=C/c1ccc([N+](=O)[O-])cc1)OC — outcome?
0

Assay result, entry O=C(O)c1ccc2c(c1Sc1ccccc1)C(=O)c1ccccc1C2=O — outcome?
0

Assay result, entry COc1cc(-c2cnc3nonc3n2)c(OC)c2c1OCO2 — outcome?
0

Assay result, entry COc1ccc(C2c3ccc4ccccc4c3Oc3ncnc(N)c32)cc1 (stereo not given) — outcome?
0

====

Exercise: state measured growth for each of the compounds provided.
# Tested on: SF-268 CNS
# RUN_DESCRIPTION: NCI-60 one-dose screen, 48 h (100 = growth as untreated, 0 = no growth, -100 = all killed)
# ASSAY_SETUP: 10 µM unless noted
The panel holds about 83,000 compounds, 20% with a hit somewhere; the sample as a whole holds those more often. Calls of active or inactive are those of the source. The calls were made as follows: active = growth percent below 10; inactive = the rest.

{"columns": ["COMPOUND", "growth"],
 "data": [
  ["C[C@]12C[C@@H](c3ccoc3)OC(=O)[C@@H]1CC[C@]1(C)[C@@H]2CC[C@@H](O)[C@]1(C)O", "106% (inactive)"],
  ["Nc1cc2nc3ccccc3sc-2cc1=O", "78.1% (inactive)"],
  ["COc1ccc(-c2csc(NC(=O)CN3CCN(c4cc5c(cc4F)c(=O)c(C(=O)O)cn5C4CC4)CC3)n2)cc1", "29.2% (inactive)"],
  ["COC1/C=C\\OC2(C)Oc3c(C)c(O)c4c(O)c(c(CN(C)CCO)c(O)c4c3C2=O)NC(=O)/C(C)=C\\C=C/C(C)C(O)C(C)C(O)C(C)C(OC(C)=O)C1C (stereo not given)", "97.3% (inactive)"]
]}

// for each compound below, give its growth
1. O=C([C@@H](COCc1ccccc1)N1C(=O)[C@@H](N2C(=O)OC[C@@H]2c2ccccc2)[C@H]1/C=C/c1ccccc1)N1CCC(CCN2CCCCC2)CC1
2. COc1cccc(-n2cc(-c3nc(Nc4cc(C)[nH]n4)c4ccccc4n3)nn2)c1
3. O=C(/C=C\c1cccc([N+](=O)[O-])c1)c1ccccc1

1. 77.2% (inactive)
2. 64.1% (inactive)
3. 25.8% (inactive)
